This collection of values is drawn from patent US20240228459A1.

# subject_of_test: UniProtKB P30291
# Sequence (P30291 whole entry, species assumed): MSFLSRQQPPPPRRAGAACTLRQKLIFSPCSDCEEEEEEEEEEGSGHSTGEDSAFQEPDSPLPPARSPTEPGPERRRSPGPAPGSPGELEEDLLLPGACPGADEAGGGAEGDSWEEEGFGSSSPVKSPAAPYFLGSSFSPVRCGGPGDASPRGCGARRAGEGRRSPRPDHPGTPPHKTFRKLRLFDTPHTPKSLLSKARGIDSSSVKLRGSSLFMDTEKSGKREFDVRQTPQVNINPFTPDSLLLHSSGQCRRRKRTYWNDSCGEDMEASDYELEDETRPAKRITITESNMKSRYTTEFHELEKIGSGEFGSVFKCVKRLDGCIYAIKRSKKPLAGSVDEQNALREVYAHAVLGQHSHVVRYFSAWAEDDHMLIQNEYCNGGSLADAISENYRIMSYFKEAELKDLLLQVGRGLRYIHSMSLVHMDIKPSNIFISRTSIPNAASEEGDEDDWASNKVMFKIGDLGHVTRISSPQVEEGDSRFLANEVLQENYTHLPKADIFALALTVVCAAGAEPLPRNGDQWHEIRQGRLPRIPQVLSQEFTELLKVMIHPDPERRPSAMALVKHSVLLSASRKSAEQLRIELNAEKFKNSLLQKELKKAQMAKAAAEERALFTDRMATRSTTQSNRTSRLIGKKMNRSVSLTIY
# measurement_protocol: Wee1 pCDK1 activity (known assay)
Recorded IC50 values for a group of compounds are listed next.

Previously resolved entries follow.
{"compound": "CCC1(O)CCc2ccc(Nc3nc(Nc4cc(F)c(C5CCN(C)CC5)c(F)c4)ncc3C#N)nc21 (stereo not shown)", "IC50": "500 to 1000 nM"}
{"compound": "C[C@@H]1CN(C)CCN1c1ccc(Nc2ncc(C#N)c(Nc3cccc(N4CCOC4=O)n3)n2)cc1 (racemic)", "IC50": "100 to 250 nM"}
{"compound": "CCC1(O)CCc2ccc(Nc3nc(Nc4ccc(C5CCN(C)CC5)c(C)c4)ncc3C#N)nc21 (single isomer, unassigned) [Example 21]", "IC50": "≤ 100 nM"}

Qu. With UniProtKB P30291 as the test system, provide measured IC50 for this compound: CN1CCc2cc(Nc3ncc(C#N)c(Nc4cccc(N5CCCC5=O)n4)n3)ccc2C1
Ans. ≤ 100 nM

Qu. With UniProtKB P30291 as the test system, provide measured IC50 for this compound: CN1CC2CCC(C1)N2c1ccc(Nc2ncc(C#N)c(Nc3ccc4c(n3)C(C)(O)CC4)n2)cc1 (stereo not shown)
Ans. 250 to 500 nM

Qu. With UniProtKB P30291 as the test system, provide measured IC50 for this compound: CN1CCc2cc(Nc3ncc(C#N)c(Nc4cccc(N5CCOC5=O)n4)n3)cc(Cl)c2C1
Ans. ≤ 100 nM

Qu. With UniProtKB P30291 as the test system, provide measured IC50 for this compound: CN1CCC(c2ccc(Nc3ncc(C#N)c(Nc4cccc(N5CCCC5=O)n4)n3)cc2)CC1=O (stereo not shown)
Ans. 500 to 1000 nM

Qu. With UniProtKB P30291 as the test system, provide measured IC50 for this compound: C[C@@H]1CN(C)CCN1c1ccc(Nc2ncc(C#N)c(Nc3cccc(N4CCCC4=O)n3)n2)cc1
Ans. 250 to 500 nM

Qu. With UniProtKB P30291 as the test system, provide measured IC50 for this compound: Cc1cc(Nc2ncc(C#N)c(Nc3cccc(N4CCCC4=O)n3)n2)cc2c1CN(C)CC2
Ans. ≤ 100 nM

Qu. With UniProtKB P30291 as the test system, provide measured IC50 for this compound: CN1CC2CC1CN2c1ccc(Nc2ncc(C#N)c(Nc3cccc(N4CCCC4=O)n3)n2)cc1 (stereo not shown)
Ans. 250 to 500 nM

Qu. With UniProtKB P30291 as the test system, provide measured IC50 for this compound: COCc1cc(Nc2ncc(C#N)c(Nc3cccc(N4CCCC4=O)n3)n2)ccc1C1CCN(C)CC1
Ans. 500 to 1000 nM

Qu. With UniProtKB P30291 as the test system, provide measured IC50 for this compound: CCC1(O)CCc2ccc(Nc3nc(Nc4ccc5c(c4)CCN(C)C5(C)C)ncc3C#N)nc21 (single isomer, unassigned) [Example 28]
Ans. 250 to 500 nM

Qu. With UniProtKB P30291 as the test system, provide measured IC50 for this compound: CN1CCc2cc(Nc3ncc(C#N)c(Nc4ccc5c(n4)C(C)(O)CC5)n3)ccc2C1(C)C (stereo not shown)
Ans. 250 to 500 nM

Qu. With UniProtKB P30291 as the test system, provide measured IC50 for this compound: CCC1(O)CCc2ccc(Nc3nc(Nc4ccc5c(c4)CCN(C)C5)ncc3C#N)nc21 (stereo not shown)
Ans. 100 to 250 nM

Qu. With UniProtKB P30291 as the test system, provide measured IC50 for this compound: CCC1(O)CCc2ccc(Nc3nc(Nc4ccc(N5CCN(C6CC6)CC5)cc4)ncc3C#N)nc21 (stereo not shown)
Ans. 500 to 1000 nM

Qu. With UniProtKB P30291 as the test system, provide measured IC50 for this compound: CCC1(O)CCc2ccc(Nc3nc(Nc4ccc(N5CCN(C)C(C)C5)cc4)ncc3C#N)nc21 (stereo not shown)
Ans. 250 to 500 nM

Qu. With UniProtKB P30291 as the test system, provide measured IC50 for this compound: CCC1(O)CCc2ccc(Nc3nc(Nc4ccc5c(c4)CNCC5(C)C)ncc3C#N)nc21 (stereo not shown)
Ans. 250 to 500 nM

Qu. With UniProtKB P30291 as the test system, provide measured IC50 for this compound: CCC1(O)CCc2ccc(Nc3nc(Nc4ccc(N5CCNC6(CC6)C5)cc4)ncc3C#N)nc21 (stereo not shown)
Ans. > 1000 nM

Qu. With UniProtKB P30291 as the test system, provide measured IC50 for this compound: CCC1(O)CCc2ccc(Nc3nc(Nc4ccc5c(c4)CCN(C)C5(C)C)ncc3C#N)nc21 (stereo not shown) [Example 26]
Ans. ≤ 100 nM
